Target: PTPN3, P26045
Sequence (P26045 505-587): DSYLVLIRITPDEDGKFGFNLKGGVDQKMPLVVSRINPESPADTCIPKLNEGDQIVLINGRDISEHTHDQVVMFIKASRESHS
Test: holdup assay
Set-up: key: below the threshold = too weak to quantify, mostly under pKd 3.1 to 4
Conditions: plain residues with an end cap or a label only (N-terminal biotin on a linker: ado-ado)
endpoint: pKd
Answers are plain numbers.

// batch mode: one pKd value per listed entry
1. LVEEEEPMNL [HDAC7, Q8WUI4]
2. PALKNGQYWV [CSPG4, Q6UVK1]

4.04
4.1
